Hey, just so you know, these numbers are from patent US20220387457A1.

Assay: Toxicokinetics after escalating intravenous doses of CKLP1 in beagles
Assay type: in vivo, beagle dog
Settings: male, beagle, dog, in vivo, iv, 3 mg/kg
measurementName: Vd (L/kg)

>>> print(df.to_string())
                            smilesstructure  valuemeasured
0  CC1(C)Oc2ccc(C#N)cc2[C@@H](N2CCCC2=O)[C@@H]1OP(=O)(O)O          0.303

###

Experiment: Plasma pharmacokinetics of CKLP1 and levcromakalim after topical dosing in hound dogs
Type: in vivo, hound dog
Conditions: hound, dog, plasma, topical or ocular, 10 mM CKLP1, 50 µL in each of both eyes, CKLP1; topical 10 mM CKLP1 once daily; Day 8; read-out: Tmax (converted)
Description: To assess the pharmacokinetic parameters, hound dogs (n=3) were treated with 50 μL topical ocular administration of 10 mM CKLP1 or vehicle (PBS) (n=2) in both eyes, once daily for eight days. […] Immediately prior to analysis, tissues were thawed and their weight was measured. […] Data were acquired and analyzed using Waters MassLynx v4.1 software.
measurementName: Tmax (h)

>>> df
                                   compound  measurementname  valuemeasured
0  CC1(C)Oc2ccc(C#N)cc2[C@@H](N2CCCC2=O)[C@@H]1OP(=O)(O)O [CKLP1]             Tmax              1
